Assay: Volume of distribution at steady state in Sprague-Dawley rat at 1 mg/kg, iv
Format: ADME, organism-based
Set-up: dose 1 mg/kg, route intravenous
Details: in vivo, read-out: Vdss
# maps each entry to its Vd

molecule: CN(C)[C@@H]1CCC[C@H]1Nc1nc(Nc2ccc(S(C)(=O)=O)cc2)ncc1C(F)(F)F
Vd: 13 L/kg

molecule: CN=[S+](C)([O-])c1ccc(Nc2ncc(C(F)(F)F)c(N[C@@H]3CCC[C@H]3N(C)C)n2)cc1 (stereo in doubt; (S)-14a)
Vd: 13 L/kg

###

Assay: Lipophilicity, log D of the compound at pH 7.4
Assay type: physicochemical
Settings: buffer

compound: CN(C)[C@@H]1CCC[C@H]1Nc1nc(Nc2ccc(S(C)(=O)=O)cc2)ncc1C(F)(F)F
logD: 1.5
//
compound: CN=[S+](C)([O-])c1ccc(Nc2ncc(C(F)(F)F)c(N[C@@H]3CCC[C@H]3N(C)C)n2)cc1 (stereo in doubt; (S)-14a)
logD: 1.7
